Where do the numbers come from? From PubChem BioAssay (NCI).

For each record, write down the corresponding growth.
# Test system: RXF 393 renal
# method notes: NCI-60 one-dose screen, 48 h (100 = growth as untreated, 0 = no growth, -100 = all killed)
# test conditions: 10 µM unless noted
About 83,000 compounds went through this panel and 20% of them were active in at least one assay; those are over-represented in the sample as a whole.
One number for each entry, in %.

Consider the reported growth for these compounds:
O=C(Nc1ccc(Oc2cccc(Cl)c2)c(Cl)c1)c1cccnn1 ... 90.3
Cc1cccc(N=Nc2cccc(C)c2)c1 ... 115
Cc1[nH]c(C(=O)Nc2ccccc2OC2CCN(CCN3CCOCC3)CC2)c(Cl)c1Cl ... 83.6
[N-]=[N+]=NCC1OC(n2cnc3c(NC(=O)Nc4ccccc4)ncnc32)C2OC(=O)CC12 (stereo not given) ... -28.7
O=c1oc2ccccc2cc1-c1nn(-c2ccccc2)cc1-c1nn[nH]n1 ... 99.4
CN(C)C1CN(C(=O)c2cc(-c3ccc4ncnc(N5CCc6cc(F)c(Cl)cc65)c4c3)cnc2N)C1 ... -32
COc1cc(/C=N/NC(=O)c2ccc(-n3cc(-c4ccccc4)nn3)cc2)cc(OC)c1OC ... 68.7
O=C(/C=C/c1ccco1)Nc1ncc(Cc2cc(Cl)ccc2Cl)s1 ... -2.79

Items follow; give growth for each.
1. C/C=C1/CN(CCCCC)CC[C@H]1C(=O)c1cc2ccccc2[nH]1
2. N#CSc1c[nH]c2ccc(/C=C/C(=O)/C=C(O)/C=C/c3ccc4[nH]cc(SC#N)c4c3)cc12

Result:
94.1
9.89

###

# Tested on: HOP-62 NSCLC
# method notes: NCI-60 one-dose screen, 48 h
# test conditions: 10 µM unless noted
The panel holds about 83,000 compounds, 20% with a hit somewhere; the sample as a whole holds those more often. Activity calls are given as the source filed them. The calls were made as follows: active = growth percent below 10; inactive = the rest.
# output must be one of active, inactive

Completed entries (count: 4):
COC(=O)c1c(C)nc(C)c2c1C(=O)C=C(NCc1ccccc1)C2=O ... inactive
Cc1ccc(S(=O)(=O)OC[C@]23CCC(C)(C)C[C@H]2C2=CC[C@@H]4[C@@]5(C)CCCNC(C)(C)[C@@H]5CC[C@@]4(C)[C@]2(C)CC3)cc1 ... inactive
O=C(CN1C(=O)S/C(=C\C(Cl)=C\c2ccccc2)C1=O)NC1CCS(=O)(=O)C1 (stereo not given) ... inactive
N#Cc1c(-c2ccc(Br)cc2)nc2c(N=Nc3ccc(S(N)(=O)=O)cc3)c(N)nn2c1N ... inactive

Shifting focus to the compound that follows.
Q: Test call, this compound: Nc1c(Br)cc2c(c1Br)Cc1cc([N+](=O)[O-])ccc1-2
Result: inactive

###

# Tested on: UO-31 renal
# method notes: NCI-60 one-dose screen, 48 h (100 = growth as untreated, 0 = no growth, -100 = all killed)
# test conditions: 10 µM unless noted
# Description: Growth inhibition of the UO-31 human tumor cell line is measured as a screen for anti-cancer activity. Cells are grown in 96 well plates and exposed to the test compound for 48 hours. Compounds are tested at a single concentration, which is 10^-5 M for most compounds. The reported endpoint is percent growth (GI% or GIPRCNT), where numbers from 0 - 100% represent growth inhibition, and numbers from -100% - 0 represent cell death. For example, a value of 40 represents 60% growth inhibition. […]
The panel holds about 83,000 compounds, 20% with a hit somewhere; the sample as a whole holds those more often.
Decision: growth beneath 70% gives Met; growth meeting or exceeding 70% gives Not met.

These solved cases illustrate the format of a correct answer.
O=C1CCCC1[n+]1ccccc1 (stereo not given) ... Not met
CCn1cc(C(=O)N/N=C/c2cccc(F)c2)c(=O)c2cc(F)c(N3CCNC(C)C3)c(F)c21 (stereo not given) ... Met
CCOC(=O)c1ccc[nH]1 ... Not met
C=CCN=c1sc(-c2ccc3ccccc3c2)cn1NC(=O)c1cc2ccc1CCc1ccc(cc1)CC2 ... Met
CC(C)CCC[C@@H](C)[C@H]1CC[C@H]2[C@@H]3CC=C4c5sc(Nc6cc(C(F)(F)F)cc(C(F)(F)F)c6)nc5CC[C@]4(C)[C@H]3CC[C@]12C ... Not met

Q: Is growth strictly under 70% for the entry CC1(C)N=C(N)N=C(N)N1c1cc(Cl)ccc1Cl ?
Result: Not met

Q: Given the entry CCCOC(=O)Nc1nc2ccc(SCC)cc2s1 , would its reported growth be below 70%?
Result: Not met

Q: Would you kindly verify if growth of O=C(c1c[nH]c2ccccc12)c1n[nH]c(=S)n1-c1ccc([N+](=O)[O-])cc1 is strictly less than 70%?
Result: Not met

Q: Is growth of N[C@@H]1CCC[C@H]1NCCCCN1C(=O)c2cccc3cc([N+](=O)[O-])cc(c23)C1=O strictly below 70%?
Result: Met

###

Please provide measured growth for the entries that follow.
# Tested on: HOP-62 NSCLC
# method notes: NCI-60 one-dose screen, 48 h (100 = growth as untreated, 0 = no growth, -100 = all killed)
# test conditions: 10 µM unless noted
About 83,000 compounds went through this panel and 20% of them were active in at least one assay; those are over-represented in the sample as a whole.
One number for each entry, in %.

# count of solved cases: 5
COc1ccc(-c2cc(C(=O)N3N=C(c4ccc(N)cc4)CC3c3ccc(Cl)cc3)c3ccccc3n2)cc1 (centres undefined) ... 36.3
FC(F)(F)c1[nH]ncc1-c1nc2ccc3[nH]ncc3c2c2c1CCCC2 ... 1.07
Cc1ncc(C(=O)Nc2ccc(CN3CCN(C)CC3)c(C(F)(F)F)c2)cc1C#Cc1cnc(N)c2ccc(C#N)cc12 ... -7.92
O=C(NN1C(=O)CSC1c1cccc([N+](=O)[O-])c1)c1ccc(NC(=O)c2ccccn2)cc1 (centres undefined) ... 95.4
COc1ccc(CNc2ccc3nc(NC(=O)CN4CCCCCC4)sc3c2)cc1 ... 113

Your task in this section: give growth for each listed record.
1. CCOC(=O)c1nnn(Cc2cc(=O)oc3ccc(O)cc23)c1C
2. Clc1ccc(-c2cc(-c3ccccc3)nc(N3CCN(CCCNc4ccnc5cc(Cl)ccc45)CC3)n2)cc1
3. C=CC(=O)Nc1cccc(Oc2nccc(Nc3nnc(-c4ccc(Br)cc4)s3)n2)c1
4. COc1cc(-c2nccc3[nH]c(-c4cccc5[nH]ccc45)nc23)cc(OC)c1OC

Result:
1: 102; 2: 82.1; 3: 91; 4: 12.2

###

# Tested on: UO-31 renal
# method notes: NCI-60 one-dose screen, 48 h (100 = growth as untreated, 0 = no growth, -100 = all killed)
# test conditions: 10 µM unless noted
This is part of a sample that, as a whole, favours compounds with a hit. Of some 83,000 tested, about 20% had one in any assay.
quantity name: growth (%)
Answers are plain numbers, in %.

Examples with their reported growth follow.
N#CSc1c[nH]c2ccc(/C=C/C(=O)/C=C(O)/C=C/c3ccc4[nH]cc(SC#N)c4c3)cc12 ... -40.1
C=C1C(=O)O[C@H]2[C@H]1CC/C(COC(=O)/C=C\C(=O)NCc1ccc(Cn3c(=O)sn(CCCCl)c3=O)cc1)=C\CC[C@@]1(C)O[C@@H]21 ... 53.1

Q: Return growth for the following compound: C=C(C)[C@@H]1CC[C@]2(COC3CCCCO3)CC[C@]3(C)[C@H](CC[C@@H]4[C@@]5(C)C=C(C=O)C(=O)C(C)(C)[C@@H]5CC[C@]43C)[C@@H]12 (stereo partly drawn)
Result: -86.8

###

# System: HS 578T breast
# method notes: NCI-60 one-dose screen, 48 h
# test conditions: 10 µM unless noted
Compounds without any hit were thinned out: in the full panel of roughly 83,000, 20% have a hit. Active and inactive are the calls of the source. How the source made its calls: active means growth percent below 10; inactive means the rest.
Choose the fitting class; nothing outside active, inactive is accepted.

COc1ccc2cc(-c3nc4ccc(C)cn4c3NCc3ccco3)c(=O)[nH]c2c1 ... inactive
CN(C)CCCn1c2c(c3cnccc3c1=O)C(=O)c1ccccc1-2 ... inactive
O=S(=O)(N=C1C(Cl)=C(Cl)C(=NS(=O)(=O)c2ccccc2)C(Cl)=C1Cl)c1ccccc1 ... inactive
c1ccc(-c2nc3ccccc3[nH]2)c(OCCCCCOc2ccccc2-c2nc3ccccc3[nH]2)c1 ... inactive
CC(=O)O[C@H]1CC[C@]2(C)[C@H]3CC=C4[C@@H]5CC(C)(C)CC[C@]5(C(=O)N5CCN(CCC#N)CC5)CC[C@@]4(C)[C@]3(C)CC[C@H]2C1(C)C ... inactive

Q: Each molecule tested received a call. Report the one for N=C(N)c1ccc(-c2ccc(-c3cc(Cl)cc(Cl)c3)s2)s1 .
Result: inactive

Q: Would you mind telling me which call this test gave COc1cc(/C=C/C(=O)N2CCN(C(=O)c3cc(OC)c(OC)c(OC)c3)CC2)ccc1OCCCOc1cc2c(cc1OC)C(=O)N1CCC[C@H]1C=N2 ?
Result: active

Q: How did this test come out for CCN(CC)CCN1C(=O)c2c(c3c4ccccc4[nH]c3c3ccc4ccccc4c23)C1=O ?
Result: inactive

Q: In this assay, the call recorded for CNCCCNc1nc2ccccc2c2c(=O)c3cc(Cl)ccc3sc12 was what?
Result: inactive
